Origin of values: ChEMBL document CHEMBL4715740

system: Rattus norvegicus; test: Antiinflammatory activity against Sprague-Dawley rat assessed as reduction in carragenan-induced paw edema administered ip and measured after 2 hrs by plethysmometry; assay type: functional
MEASUREMENT TYPE: ED50 (mg/kg)

STRUCTURE STRING: CCC(=O)NNC(=O)CSc1nc2ccccc2c(=O)n1CCc1ccccn1
TESTED SYSTEM: Rattus norvegicus
MEASUREMENT TYPE: ED50
READOUT RELATION: =
REPORTED VALUE: 83.3

STRUCTURE STRING: Cc1ccc(-c2cc(C(F)(F)F)nn2-c2ccc(S(N)(=O)=O)cc2)cc1
TESTED SYSTEM: Rattus norvegicus
MEASUREMENT TYPE: ED50
READOUT RELATION: =
REPORTED VALUE: 84.3

STRUCTURE STRING: O=c1c2ccccc2nc(SCc2nnc(Nc3ccccc3)s2)n1CCc1ccccn1
TESTED SYSTEM: Rattus norvegicus
MEASUREMENT TYPE: ED50
READOUT RELATION: >
REPORTED VALUE: 200

STRUCTURE STRING: O=c1c2ccccc2nc(SCc2nnc(NCc3ccccc3)s2)n1CCc1ccccn1
TESTED SYSTEM: Rattus norvegicus
MEASUREMENT TYPE: ED50
READOUT RELATION: >
REPORTED VALUE: 200

STRUCTURE STRING: CCn1c(S)nnc1CSc1nc2ccccc2c(=O)n1CCc1ccccn1
TESTED SYSTEM: Rattus norvegicus
MEASUREMENT TYPE: ED50
READOUT RELATION: =
REPORTED VALUE: 91.9

STRUCTURE STRING: CC(C)c1ccc(CSc2nc3ccccc3c(=O)n2CCc2ccccn2)cc1
TESTED SYSTEM: Rattus norvegicus
MEASUREMENT TYPE: ED50
READOUT RELATION: >
REPORTED VALUE: 200

STRUCTURE STRING: O=c1c2ccccc2nc(SCc2nnc(S)n2-c2ccccc2)n1CCc1ccccn1
TESTED SYSTEM: Rattus norvegicus
MEASUREMENT TYPE: ED50
READOUT RELATION: >
REPORTED VALUE: 200

STRUCTURE STRING: O=C(CSc1nc2ccccc2c(=O)n1CCc1ccccn1)NNC(=O)c1ccccc1
TESTED SYSTEM: Rattus norvegicus
MEASUREMENT TYPE: ED50
READOUT RELATION: =
REPORTED VALUE: 90.1

STRUCTURE STRING: CCNC(=S)NNC(=O)CSc1nc2ccccc2c(=O)n1CCc1ccccn1
TESTED SYSTEM: Rattus norvegicus
MEASUREMENT TYPE: ED50
READOUT RELATION: =
REPORTED VALUE: 70.5

STRUCTURE STRING: COc1ccc(Nc2nnc(CSc3nc4ccccc4c(=O)n3CCc3ccccn3)s2)cc1
TESTED SYSTEM: Rattus norvegicus
MEASUREMENT TYPE: ED50
READOUT RELATION: >
REPORTED VALUE: 200

----------
tested on: Rattus norvegicus; test: Antiinflammatory activity against Sprague-Dawley rat assessed as reduction in carragenan-induced paw edema administered ip and measured after 2 hrs by plethysmometry; format: functional

STRUCTURE STRING: CCNc1nnc(CSc2nc3ccccc3c(=O)n2CCc2ccccn2)s1
ED50: > 200 mg/kg
--
STRUCTURE STRING: O=C(CSc1nc2ccccc2c(=O)n1CCc1ccccn1)NNC(=O)c1ccc(Cl)cc1
ED50: > 200 mg/kg
--
STRUCTURE STRING: O=c1c2ccccc2nc(SCc2nnc(S)n2Cc2ccccc2)n1CCc1ccccn1
ED50: > 200 mg/kg
--
STRUCTURE STRING: O=c1c2ccccc2nc(SCc2ccc(Cl)cc2)n1CCc1ccccn1
ED50: 65.7 mg/kg
--
STRUCTURE STRING: N#CCSc1nc2ccccc2c(=O)n1CCc1ccccn1
ED50: > 200 mg/kg
--
STRUCTURE STRING: O=c1c2ccccc2nc(SCc2ccccc2)n1CCc1ccccn1
ED50: > 200 mg/kg
--
STRUCTURE STRING: CSc1nc2ccccc2c(=O)n1CCc1ccccn1
ED50: > 200 mg/kg
--
STRUCTURE STRING: O=C(CSc1nc2ccccc2c(=O)n1CCc1ccccn1)NNC(=S)NCc1ccccc1
ED50: > 200 mg/kg
--
STRUCTURE STRING: O=C(CSc1nc2ccccc2c(=O)n1CCc1ccccn1)NNC(=S)Nc1ccccc1
ED50: > 200 mg/kg
--
STRUCTURE STRING: COc1ccc(C(=O)NNC(=O)CSc2nc3ccccc3c(=O)n2CCc2ccccn2)cc1
ED50: 101 mg/kg
--
STRUCTURE STRING: O=C1c2ccccc2C(=O)N1CCCSc1nc2ccccc2c(=O)n1CCc1ccccn1
ED50: > 200 mg/kg
--
STRUCTURE STRING: O=c1c2ccccc2nc(SCCN2CCOCC2)n1CCc1ccccn1
ED50: > 200 mg/kg
--
STRUCTURE STRING: CCSc1nc2ccccc2c(=O)n1CCc1ccccn1
ED50: 74.5 mg/kg
--
STRUCTURE STRING: COc1ccc(NC(=S)NNC(=O)CSc2nc3ccccc3c(=O)n2CCc2ccccn2)cc1
ED50: > 200 mg/kg
--
STRUCTURE STRING: CCOC(=O)CSc1nc2ccccc2c(=O)n1CCc1ccccn1
ED50: > 200 mg/kg
